Here the recorded melting point is given for each entry.

Solved cases (4 shown):
molecule | property-label | observed-measurement
CS(=O)(=O)Nc1cc2occ(CO)c(=O)c2cc1Oc1ccccc1 | melting point | 165 to 166 °C
Nc1nc(=O)n(C(=O)NC2CCCC2)cc1F | melting point | 294 to 297 °C
O=C1C(=Cc2ccc(Cl)c(Cl)c2)CSCC1=Cc1ccc(Cl)c(Cl)c1 | melting point | 151 to 152 °C
CCc1noc(-c2cc3c(cn2)[nH]c2cccc(Oc4ccc(Cl)cn4)c23)n1 | melting point | 259 to 260 °C

Give the reported value of melting point for this record: Cc1cc(S(=O)(=O)Cl)c(C)c(S(=O)(=O)Cl)c1
24 to 27 °C

Entry Cn1cncc1C(O)(c1ccoc1)c1ccc2nc(Cl)cc(-c3cccc(Cl)c3)c2c1 (stereo unspecified) needs its melting point filled in; supply it.
246 °C

Answer with the recorded melting point of COc1ccc2c(c1)[nH]c1c(C)nc3c(c12)C(=O)CC(C)(C)C3 only.
250 to 252 °C

Quick one: give measured melting point for C=C(CCC(C)C1CCC2(O)C3=C(C(=O)CC12C)C1(C)CCC(=O)C(C)C1CC3O)C(C)C(=O)O (stereo unspecified)
175 to 177 °C

Using the record for Nc1ncc(Br)cc1C(=O)O , state its measured melting point.
272 °C

Consider the molecule O=C(NC(=O)c1c(Cl)cccc1Cl)Nc1ccc(C(F)(F)F)cn1 and give its recorded melting point.
228 to 230 °C

Give the reported melting point for this molecule. CC(=O)n1c(=NC(F)(F)F)oc2ccccc21
140 to 143 °C

Answer with the recorded melting point of COC(=O)C(=O)c1ccc(OC/C=C/c2ccc(F)cc2)cc1 only.
84 to 85 °C

Give melting point for the following molecule: CCOc1cc2ncc(C#N)c(Nc3cccc(Cl)c3)c2cc1OCC
188 to 190 °C

Name the recorded melting point of the molecule listed here: CCOC(=O)c1ccc(OCCC2CCc3c(c(OC)c(OC)c(OC)c3OC)CC2)cc1
129 to 131 °C

Check the records and state melting point for CC1=NN(c2ccccc2O)C(=O)C1
212 to 214 °C

Return reported melting point. Input molecule: COc1cccc(C(=Cc2ccccc2)c2cccc(OC)c2OC)c1OC
138 °C

Answer with the recorded melting point of CC(C)(C)CNc1cc(F)cc(C(=O)Nc2ccc(OCCN3CCOCC3)c3ccccc23)c1 only.
85 to 87 °C

Tell me measured melting point for N#Cc1cc(-c2ccc(Cl)c(Cl)c2)[nH]c1Br please.
> 200 °C

Return the recorded melting point value; entry: OC1CSC(Oc2cnc(Cl)c(F)c2)C(O)C1O (stereo unspecified)
198 to 200 °C

Quickly give me recorded melting point for CCOC(=O)C1=C(C)NC(C)=C(C(=O)OCC)C1c1cccc(F)c1F
161 to 162 °C

Hello, please tell me recorded melting point for this one: CC#CC1(O)CCC2C3CCC4=CC(=O)CCC4C3CCC21CCC (stereo unspecified)
182 to 184 °C
